Provenance of the data: paper PMC12604929

# Run description: MTT cytotoxicity assay, HPLF
# Format: cell-based, human
# Reported conditions: female, human, normal oral cells, average of three determinations
Assignment: determine reported CC50 at 48 h for the given molecules.

Here's what some known entries look like.
- Molecule: "COc1cccc2c1C(=O)c1c(O)c3c(c(O)c1C2=O)C[C@@](O)(C(=O)CO)C[C@@H]3O[C@H]1C[C@H](N)[C@H](O)[C@H](C)O1 [DXR, doxorubicin, reference compound]"
  Assay readout: "CC50 at 48 h"
  Endpoint value: "> 10 µM"
- Molecule: "COc1ccc(C(=O)/C=C/c2cn(-c3ccc(S(N)(=O)=O)cc3)nc2-c2ccccc2)cc1OC"
  Assay readout: "CC50 at 48 h"
  Endpoint value: "> 400 µM"

Fill in CC50 at 48 h for each of the 2 molecules listed.
1. COc1cc(OC)c(C(=O)/C=C/c2cn(-c3ccc(S(N)(=O)=O)cc3)nc2-c2ccccc2)cc1OC
2. Cc1ccc(C(=O)/C=C/c2cn(-c3ccc(S(N)(=O)=O)cc3)nc2-c2ccccc2)cc1

1: > 400 µM; 2: > 400 µM

====

# Run description: MTT cytotoxicity assay, HPC
# Format: cell-based, human
# Reported conditions: female, human, human pulp cells (HPC), normal oral cells, average of three determinations
Assay readout: CC50 at 48 h

Some solved entries appear below for comparison.
- Structure: "COc1cc(C(=O)/C=C/c2cn(-c3ccc(S(N)(=O)=O)cc3)nc2-c2ccccc2)cc(OC)c1OC"
  CC50 at 48 h: "> 400 µM"
- Structure: "COc1cc(OC)c(C(=O)/C=C/c2cn(-c3ccc(S(N)(=O)=O)cc3)nc2-c2ccccc2)cc1OC"
  CC50 at 48 h: "> 400 µM"

Any idea what its CC50 at 48 h is? The molecule is COc1ccc(C(=O)/C=C/c2cn(-c3ccc(S(N)(=O)=O)cc3)nc2-c2ccccc2)cc1OC > 400 µM
